Attribution: PubChem BioAssay (NCI)

# System: MDA-MB-231 breast
# test: NCI tumour cell line growth inhibition, 48 h
Classify by measured TGI: MET if it is equal to or exceeds 5 µM, NOT MET if it is smaller.

{"molecule": "Cc1ccc(/C=C/C(=N/N=C(N)N)c2ccccc2)cc1", "experimentalSystem": "MDA-MB-231 breast", "groupLabel": "NOT MET"}
{"molecule": "CCCCCCCCCCC/C=C\\C[C@H](O)C/C=C1/C(=O)C=C[C@@H]1C/C=C\\CCCC(=O)OC", "experimentalSystem": "MDA-MB-231 breast", "groupLabel": "NOT MET"}
{"molecule": "COC(=O)c1ccc2c(c1)C(=O)c1c-2n(C)c(=O)c2cc(OC)c(OC)cc12", "experimentalSystem": "MDA-MB-231 breast", "groupLabel": "MET"}
{"molecule": "COC(=O)/C=C(/C(=O)OC)c1cc2ccc3c([nH]c4ccccc43)c(C)c-2c1", "experimentalSystem": "MDA-MB-231 breast", "groupLabel": "MET"}
{"molecule": "COC(=O)c1ccc(NCc2c(O)ccc(O)c2Br)cc1Cl", "experimentalSystem": "MDA-MB-231 breast", "groupLabel": "MET"}
{"molecule": "CCOC(=O)c1ccc2c(c1)nc(/C=C/c1ccc(Cl)cc1)n2-c1cc(C(C)(C)C)[nH]n1", "experimentalSystem": "MDA-MB-231 breast", "groupLabel": "MET"}
{"molecule": "O=c1c2cccc(F)c2sc2c(N3CCNCC3)nc3ccccc3c12", "experimentalSystem": "MDA-MB-231 breast", "groupLabel": "NOT MET"}
{"molecule": "CSCC[C@H](NC(=O)[C@H](CC(C)C)NC(=O)[C@@H](Cc1ccccc1)NC(=O)CNC(=O)[C@@H](NC(=O)[C@H](C)NC(=O)[C@H](Cc1c[nH]c2ccccc12)NC(=O)[C@H](CCC(N)=O)NC(=O)[C@H](N)CC(N)=O)C(C)C)C(N)=O", "experimentalSystem": "MDA-MB-231 breast", "groupLabel": "MET"}
{"molecule": "O=C(Nc1nc(C23CC4CC(CC(C4)C2)C3)cs1)c1cc2cc(Cl)ccc2oc1=O", "experimentalSystem": "MDA-MB-231 breast", "groupLabel": "MET"}
{"molecule": "CC(=O)Nc1ccc(-c2nc3ccccc3s2)cc1C", "experimentalSystem": "MDA-MB-231 breast", "groupLabel": "MET"}
{"molecule": "CC(C)=CCC1=C(OCC(=O)O)C(=O)c2ccccc2C1=O", "experimentalSystem": "MDA-MB-231 breast", "groupLabel": "MET"}
{"molecule": "COC(=O)c1c2c(cc3c1CC1(C3)Cc3cc4c(c(C(C)=O)c3C1)CCC4)C=CC2 (stereo not drawn)", "experimentalSystem": "MDA-MB-231 breast", "groupLabel": "MET"}
{"molecule": "C=C1COC(O)(C2OCOC(C3CC(=O)NC(=O)C3)C2O)C1C (stereo not drawn)", "experimentalSystem": "MDA-MB-231 breast", "groupLabel": "NOT MET"}

====

# Test system: OVCAR-4 ovarian
# test: NCI tumour cell line growth inhibition, 48 h

{"compound": "COC1=C(Br)C(O)C2(C=C1Br)CC(C(=O)NCCCCNC(=O)C1=NOC3(C=C(Br)C(OC)=C(Br)C3O)C1)=NO2 (stereo not given)", "limitSign": ">", "TGI (µM)": 100}
{"compound": "COc1cccc(NC(=O)C(C)(C)C)c1SSc1c(NC(=O)C(C)(C)C)cccc1OC", "limitSign": ">", "TGI (µM)": 56.3}
{"compound": "O=C1CCCCC=C1C[N+](=O)[O-]", "limitSign": "=", "TGI (µM)": 46}
{"compound": "COC1(OC)N=C(N)C2(C#N)C3(C(=O)N(C(C)C)N=C3C)C12C#N (stereo not given)", "limitSign": ">", "TGI (µM)": 100}
{"compound": "COc1cc2nc(-c3ccc(Cl)cc3)cc(OCCCN3CCCC3)c2cc1OC", "limitSign": "=", "TGI (µM)": 22.6}
{"compound": "CCOC(=O)CSc1nnc(CSc2nc(-c3ccccc3)c(-c3ccccc3)[nH]2)n1-c1ccccc1", "limitSign": "=", "TGI (µM)": 48.3}
{"compound": "COC(=O)NN1C(C)=C(C(=O)OC)C2(C#N)C(C(=O)OC)=C(C)N(NC(=O)OC)C12N (stereo not given)", "limitSign": ">", "TGI (µM)": 100}
{"compound": "Nc1ccccc1NC(=O)c1ccc(CN2CCC/C(=C\\c3ccccn3)C2=O)cc1", "limitSign": ">", "TGI (µM)": 100}
{"compound": "c1ccc(Nc2nc(-c3ccccn3)cs2)nc1", "limitSign": ">", "TGI (µM)": 100}
{"compound": "CCCCCCC/C=C/[C@H]1O[C@]2(O)C(=O)C=C3C[C@@H](O[C@@H]4O[C@H](CO)[C@@H](O)C(O)[C@@H]4O)C[C@@H]3[C@H]2C=C1C (stereo not given in full)", "limitSign": "=", "TGI (µM)": 7.83}

====

# System: HCC-2998 colon
# test: NCI tumour cell line growth inhibition, 48 h
// reported GI50 for each item listed
readoutType: GI50

{"smilesStr": "Cn1cc(-c2csc(-c3cn(CCCCN4CCCCC4)c4ccc(F)cc34)n2)c2cccnc21", "experimentalSystem": "HCC-2998 colon", "result": "1.59 µM"}
{"smilesStr": "N#Cc1ccsc1NC(=O)COC(=O)c1cccc(S(=O)(=O)N2CCc3ccccc32)c1", "experimentalSystem": "HCC-2998 colon", "result": "39.2 µM"}
{"smilesStr": "CO[C@]12C=C/C(=C(/C(=O)OCc3cccnc3)C(=O)CCCCCCCC[C@@]3(OC)C=C/C(=C(/C(=O)OCc4cccnc4)C(=O)CCCCCCCC1)O3)O2", "experimentalSystem": "HCC-2998 colon", "result": "0.979 µM"}
{"smilesStr": "CCCCCc1cc[n+](CC(=O)c2ccc([N+](=O)[O-])cc2)cc1", "experimentalSystem": "HCC-2998 colon", "result": "4.94 µM"}

====

// reported TGI for each item listed
# System: MOLT-4 leukemia
# test: NCI tumour cell line growth inhibition, 48 h
readoutType: TGI (µM)

{"compound": "O=C(N/C(=C\\c1ccc(/C=C(\\NC(=O)c2ccccc2)c2nc3cc(Cl)ccc3[nH]2)cc1)c1nc2cc(Cl)ccc2[nH]1)c1ccccc1", "limitSign": "=", "numericResult": 39.8}
{"compound": "Cc1ccc2c(c1)C1(OC(=O)c3ccccc31)c1ccc(F)cc1O2 (stereo not given)", "limitSign": "=", "numericResult": 54.9}
{"compound": "CCN(Cc1ccccc1Cl)c1ccc(CO)c(Cl)c1", "limitSign": "=", "numericResult": 38.1}
{"compound": "C=C1C(=O)O[C@@H]2[C@H]1CCC(C)=C1C=CC(=O)[C@]12C", "limitSign": "=", "numericResult": 39.4}
{"compound": "N.N.O=P([O-])([O-])CN(CCN(CP(=O)([O-])[O-])CP(=O)([O-])[O-])CP(=O)([O-])[O-].[Pt+2]", "limitSign": ">", "numericResult": 100}
{"compound": "C=CCc1cc(C=C(C#N)C#N)cc(OC)c1O", "limitSign": ">", "numericResult": 100}
{"compound": "CC(=O)OC12c3ccccc3-c3ccccc3C1C(C(=O)O)C2(Cl)C(=O)O (stereo not given)", "limitSign": ">", "numericResult": 10}
{"compound": "c1cnc2c(c1)-n1cccc1C1(CCSC1)NN2 (stereo not given)", "limitSign": ">", "numericResult": 100}
{"compound": "CSc1cc(Br)ccc1-n1c(C(=O)c2ccccc2)c(SC)n(-c2ccccc2)c1=O", "limitSign": ">", "numericResult": 100}
{"compound": "CCC(C)[C@H](NC(=O)NC(=O)NC(=O)CI)C(=O)OC (stereo not given in full)", "limitSign": "=", "numericResult": 6.74}

====

# Tested on: MALME-3M melanoma
# test: NCI tumour cell line growth inhibition, 48 h
// reported TGI for each item listed

{"compound": "CC(=O)C=NCC(=O)O", "TGI": "> 100 µM"}
{"compound": "CCCCc1ccc(-n2sc3ncc([N+](=O)[O-])cc3c2=O)cc1", "TGI": "21.7 µM"}
{"compound": "COc1cc2c(cc1OC)CN1CCCc3cc(OC)c(OC)cc3C1C2 (centres undefined)", "TGI": "> 100 µM"}
{"compound": "CN1C(=O)C(C(N)=O)C2CC1(C)Oc1ccccc12 (centres undefined)", "TGI": "> 100 µM"}
{"compound": "c1ccc(Nc2nc(-c3ccccn3)cs2)nc1", "TGI": "5.16 µM"}
{"compound": "CC(=O)O[C@H]1C=CC(=O)C(C)CC1C (some centres undefined)", "TGI": "> 100 µM"}
{"compound": "NC(=O)c1ncn(CCN2CCN(C(=O)NCCCCCCNC(=O)N3CCN(CCn4cnc(C(N)=O)c4N)CC3)CC2)c1N", "TGI": "> 100 µM"}
{"compound": "COc1ccc(-c2nn(-c3cccc(NC(=O)Nc4ccccc4)c3)cc2-c2ccncc2)cc1Cl", "TGI": "4.83 µM"}
{"compound": "CC(=O)OCC1=C(C(=O)O)C(c2ccc3c(c2)OCO3)c2cc3c(cc2O1)OCO3 (centres undefined)", "TGI": "> 100 µM"}
{"compound": "O=c1c(C2=NCCC2)c(-c2ccc[nH]2)[nH]n1-c1ccccc1", "TGI": "> 100 µM"}
{"compound": "CC(C)(C)CNC(=O)NCn1cc(-c2ccccc2)nn1", "TGI": "> 100 µM"}
{"compound": "CCC(CCC(C)C1CCC2C3CC=C4CC(OC5OC(CO)C(O)C(O)C5O)CCC4(C)C3CCC12C)C(C)C (centres undefined)", "TGI": "> 100 µM"}
{"compound": "COC(=O)NN1C(C)=C(C(=O)OC)C2(C#N)C(C(=O)OC)=C(C)N(NC(=O)OC)C12N (centres undefined)", "TGI": "> 100 µM"}
{"compound": "O=C(Nc1nc(C23CC4CC(CC(C4)C2)C3)cs1)c1cc2cc(Cl)ccc2oc1=O", "TGI": "> 100 µM"}
{"compound": "COc1cc(C(=O)C2C(=O)c3ccccc3C2C2(O)c3ccccc3CC2C(O)c2cc(OC)c(OC)c(OC)c2)cc(OC)c1OC (centres undefined)", "TGI": "> 100 µM"}
{"compound": "COC(=O)NC(=Nc1ccc(Oc2ccccc2)cc1NC=O)NC(=O)OC", "TGI": "> 100 µM"}
{"compound": "Cc1ccc(C2SCC(=O)N2c2ccc(-c3ccc(-n4c(-c5ccccc5)nc5ccccc5c4=O)cc3)cc2)cc1 (centres undefined)", "TGI": "> 100 µM"}
{"compound": "S=C(N/N=C/c1ccccn1)Nc1ccc(Cl)cc1", "TGI": "> 29 µM"}
{"compound": "CCOC(=O)C1=c2[nH]c3cccc4cccc(c43)n2C(=O)CC1c1ccccc1 (centres undefined)", "TGI": "> 100 µM"}
{"compound": "NCCCCCCCCCCCn1c2c(c3ccccc3c1=O)C(=O)c1ccccc1-2", "TGI": "53.6 µM"}
{"compound": "O=c1cc(N2CCCC2)[nH]c(=O)n1-c1ccc(F)cc1", "TGI": "> 100 µM"}
{"compound": "O=C1C(Cl)C2(CC(/C=C/c3ccccc3O)=NN2c2cccc(S(=O)(=O)O)c2)N1c1nc2ccccc2s1 (centres undefined)", "TGI": "27.1 µM"}
{"compound": "N#Cc1cc([N+](=O)[O-])ccc1NC(=O)C(F)(F)F", "TGI": "> 100 µM"}
{"compound": "CCCCCCCCCCC/C=C\\C[C@H](O)C/C=C1/C(=O)C=C[C@@H]1C/C=C\\CCCC(=O)OC", "TGI": "2.41 µM"}
{"compound": "CCN(Cc1ccccc1Cl)c1ccc(CO)c(Cl)c1", "TGI": "28.1 µM"}
{"compound": "COc1cc2nc(-c3ccc(Cl)cc3)cc(OCCCN3CCCC3)c2cc1OC", "TGI": "4.52 µM"}
{"compound": "Cn1c(=O)c2ccc(-c3ccc(Br)cc3)nc2n(C)c1=O", "TGI": "> 100 µM"}
{"compound": "COC1=C(Br)C(O)C2(C=C1Br)CC(C(=O)NCCCCNC(=O)C1=NOC3(C=C(Br)C(OC)=C(Br)C3O)C1)=NO2 (centres undefined)", "TGI": "45.5 µM"}
{"compound": "C/C(=N\\NS(=O)(=O)c1ccc(C)cc1)c1cc2ccccc2n1C", "TGI": "> 100 µM"}
